# Tested on: L. major promastigotes
# Assay Method Text: AlamarBlue assay against L. major promastigotes
# Format: cell-based, Leishmania major
# Test Conditions: AlamarBlue; average of 3–6 independent experiments
Value Kind: IC50

Report IC50, nothing else, for this substance: CpG ODN: unmethylated cytosine-phosphate-guanine oligodeoxynucleotide 1668, sequence TCCATGACGTTCCTGATGCT (DNA, backbone not given here)
> 150 µM

###

As shown below, each of these molecules has a reported pIC50 value.
# System: L. major promastigotes
# Assay Method Text: AlamarBlue assay against L. major promastigotes
# Assay type: cell-based, Leishmania major
# Test Conditions: Leishmania major; AlamarBlue; average of 3–6 independent experiments
# Procedure: Cytotoxicities of the different compounds or formulations against mammalian cell (BMDM or 293T epithelial cells) and L. major promastigotes were determined as previously described. […] The optical density (OD) was then measured by using Multiskan Ascent ELISA reader at a wavelength 550 nm and 630 nm. […]
In simple prose, pIC50 is minus the logarithm base ten of a concentration in moles per litre.

Molecule: N=C(N)c1ccc(OCCCCCOc2ccc(C(=N)N)cc2)cc1 [Pentamidine, pentamidine isothionate]
Value Kind: pIC50
Observed Result: 4.79
//
Molecule: C[C@@H]1[C@H](O)[C@@H](C)/C=C/C=C/C=C/C=C/C=C/C=C/C=C/[C@H](O[C@@H]2O[C@H](C)[C@@H](O)[C@H](N)[C@@H]2O)C[C@@H]2O[C@](O)(C[C@@H](O)C[C@@H](O)[C@H](O)CC[C@@H](O)C[C@@H](O)CC(=O)O[C@H]1C)C[C@H](O)[C@H]2C(=O)O [Amphotericin B, amphotericin B]
Value Kind: pIC50
Observed Result: 6.38

// next item, pIC50 requested
Report pIC50, nothing else, for this molecule: CCCCCCCCCCCCCCCCOP(=O)([O-])OCC[N+](C)(C)C [Miltefosine, 1-hexadecylphosphorylcholine]
4.55

###

# System: BMDM
# Assay Method Text: AlamarBlue cytotoxicity assay, BMDM
# Type: cell-based, BALB/c mice
# Test Conditions: average of 3–6 independent experiments, read-out: IC50 BMDMs
Value Kind: IC50

Report IC50, nothing else, for this substance: CpG ODN: unmethylated cytosine-phosphate-guanine oligodeoxynucleotide 1668, sequence TCCATGACGTTCCTGATGCT (DNA, backbone not given here)
> 150 µM
